- Test system: Escherichia coli
- experimental-protocol: Ratio of MIC for Escherichia coli K-12 KD2934 harboring gyrB K447E mutant gene to MIC for Escherichia coli K-12 KD1397 harboring wild type gyrB gene
- Format: functional

{"columns": ["compound", "Ratio"],
 "data": [
  ["CCC1CN(c2c(F)cc3c(=O)[nH]c(=O)n(C4CC4)c3c2OC)CCN1 (stereo not drawn)", "<1"],
  ["COc1c(N2CC[C@H](N)C2)c(F)cc2c(=O)c(C(=O)O)cn(C3CC3)c12", ">1"],
  ["COc1c(N2CC[C@@H](CN)C2)c(F)cc2c(=O)n(N)c(=O)n(C3CC3)c12", "<1"]
]}
